# assay.target: Human brain derived TDP-43 aggregates (Homo sapiens)
# Construct: A sample of brain tissue (frontal or temporal cortex) was homogenized; from tissue; host or cells: sarkosyl-insoluble fraction of human FTD brain (frontal or temporal cortex)
# method: Micro-radiobinding competition assay on human FTD sarkosyl-insoluble brain extracts
# Assay type: binding
# condition.set: radioligand [3H]-Compound 16 (40 nM); 0.24 nM to 2 μM test compound
Assign pKi to each entry below.
Answers are plain numbers, as −log10 of the molar value.

Examples from the recorded data:
chem.smiles | pKi
Nc1cc(N2CCc3nc(-c4cnc(N5CCC(F)CC5)nc4)sc3C2=O)ccc1F | 6.93
N#Cc1c(N)cccc1N1CCc2nc(-c3cnc(N4CCC(F)CC4)cn3)sc2C1=O | 6.83

Now for another entry.
-- ask Specify the recorded pKi for N#Cc1c(N)cccc1N1CCc2nc(-c3cnc(N4CC[C@@H](F)C4)cn3)sc2C1=O , system: Human brain derived TDP-43 aggregates (Homo sapiens).
-- reply 6.98

====

# assay.target: recombinant flag-tagged TDP-43 aggregates (Homo sapiens, UniProt Q13148)
# Construct: FLAG
# Sequence (Q13148 whole entry): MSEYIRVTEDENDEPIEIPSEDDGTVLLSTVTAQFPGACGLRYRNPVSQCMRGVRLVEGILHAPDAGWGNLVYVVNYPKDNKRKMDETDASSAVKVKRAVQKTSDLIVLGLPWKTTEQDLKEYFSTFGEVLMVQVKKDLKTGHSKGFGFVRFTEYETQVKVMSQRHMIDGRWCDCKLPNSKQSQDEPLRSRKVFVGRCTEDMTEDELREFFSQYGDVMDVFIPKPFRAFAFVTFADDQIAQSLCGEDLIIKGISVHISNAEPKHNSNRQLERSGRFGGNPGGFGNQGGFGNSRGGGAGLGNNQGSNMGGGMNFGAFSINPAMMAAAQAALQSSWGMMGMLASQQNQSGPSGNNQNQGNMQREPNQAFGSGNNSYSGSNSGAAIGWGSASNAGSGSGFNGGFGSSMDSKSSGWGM
# method: Kd determination on recombinant TDP-43 aggregates with filter-binding assay
# condition.set: filter-binding assay, tritiated radioligand 0 to 150 nM, one-site specific binding model (FIG. 1); read-out: Kd value on recombinant flag-tagged TDP-43 aggregates
quantity.name: pKd
One number for each entry, as −log10 of the molar value.

-- ask Tell me pKd reported for Cn1cc(N2CCc3nc(-c4ccc(N5CC[C@@H](F)C5)nc4)sc3C2=O)cn1 [[^3H]-Compound 1]
-- reply 7.82

====

# assay.target: Human brain derived TDP-43 aggregates (Homo sapiens)
# Construct: A sample of brain tissue (frontal or temporal cortex) was homogenized; from tissue; host or cells: sarkosyl-insoluble fraction of human FTD brain (frontal or temporal cortex)
# method: Micro-radiobinding competition assay on human FTD sarkosyl-insoluble brain extracts
# Assay type: binding
# condition.set: 250 nM test compound; radioligand [3H]-Compound 16 (40 nM)
Marks after values point to notes of the source that are not given here.
quantity.name: Human brain derived TDP-43 aggregates Mean % competition at 250 nM

chem.smiles | experimental.value
N#Cc1c(N)cccc1N1CCc2nc(-c3cnc(N4CC[C@@H](F)C4)cn3)sc2C1=O | 54.6^c %
Nc1cccc(N2CCc3nc(-c4cnc(N5CCC[C@@H](F)C5)nc4)sc3C2=O)c1F | 52.8^c %
N#Cc1c(N)cccc1N1CCc2nc(-c3cnc(N4CC[C@H](F)C4)cn3)sc2C1=O | 47.2^c %
Nc1cc(N2CCc3nc(-c4cnc(N5CCC(F)CC5)nc4)sc3C2=O)ccc1F | 63.1^c %

Okay, now this molecule:
-- ask Provide Human brain derived TDP-43 aggregates Mean % competition at 250 nM value for the following molecule: N#Cc1c(N)cccc1N1CCc2nc(-c3cnc(N4CCC(F)CC4)cn3)sc2C1=O
-- reply 64.5^c %

====

# assay.target: Human brain derived TDP-43 aggregates (Homo sapiens, UniProt Q13148)
# Construct: A sample of brain tissue (frontal or temporal cortex) was homogenized; from tissue; host or cells: sarkosyl-insoluble fraction of human FTD brain (frontal or temporal cortex)
# method: Micro-radiobinding competition assay on human FTD sarkosyl-insoluble brain extracts
# Assay type: binding
# condition.set: 2 μM test compound; radioligand [3H]-Compound 52 (75 nM)
quantity.name: Human brain derived TDP-43 aggregates Mean % competition at 2 μM

Known results for compounds:
chem.smiles | experimental.value
Nc1cc(N2CCc3nc(-c4cnc(N5CC[C@H](F)C5)cn4)sc3C2=O)ccc1F | 74.9ª %
Nc1cc(N2CCc3nc(-c4cnc(N5CC[C@@H](F)C5)nc4)sc3C2=O)ccc1F | 85.9ª %
Nc1ccc(N2CCc3nc(-c4cnc(N5CCCC5)nc4)sc3C2=O)cc1F | 69.4ª %
N#Cc1cc(N2CCc3nc(-c4ccc(N5CC[C@H](F)C5)nc4)sc3C2=O)ccc1N | 76.1ª %
Nc1cccc(N2CCc3nc(-c4cnc(N5CCC[C@H](F)C5)nc4)sc3C2=O)c1F | 77.9ª %
N#Cc1ccc(N2CCc3nc(-c4ccc(N5CCC[C@@H](F)C5)nc4)sc3C2=O)cc1N | 75.7ª %

Provide each entry's Human brain derived TDP-43 aggregates Mean % competition at 2 μM from the list below.
1. N#Cc1cc(N2CCc3nc(-c4ccc(N5CCC[C@H](F)C5)nc4)sc3C2=O)ccc1N
2. Nc1cc(N2CCc3nc(-c4ccc(N5CCCC5)cn4)sc3C2=O)ccc1F

-- reply
1. 80.9ª %
2. 67.9ª %

====

For each of the compounds below, state its Human brain derived TDP-43 aggregates Mean % competition at 250 nM.
# assay.target: Human brain derived TDP-43 aggregates (Homo sapiens, UniProt Q13148)
# Construct: A sample of brain tissue (frontal or temporal cortex) was homogenized; from tissue; host or cells: sarkosyl-insoluble fraction of human FTD brain (frontal or temporal cortex)
# method: Micro-radiobinding competition assay on human FTD sarkosyl-insoluble brain extracts
# Format: binding
# condition.set: 250 nM test compound; radioligand [3H]-Compound 52 (75 nM)

Sample records with Human brain derived TDP-43 aggregates Mean % competition at 250 nM:
chem.smiles | experimental.value
N#Cc1c(N)cccc1N1CCc2nc(-c3ccc(N4CCCC4)nc3)sc2C1=O | 46.0ª %
N#Cc1cc(N2CCc3nc(-c4ccc(N5CCCC5)nc4)sc3C2=O)ccc1N | 76.2ª %
N#Cc1ccc(N2CCc3nc(-c4ccc(N5CCC[C@H](F)C5)nc4)sc3C2=O)cc1N | 67.6ª %
Nc1cc(N2CCc3nc(-c4cnc(N5CC[C@@H](F)C5)nc4)sc3C2=O)ccc1F | 62.5ª %
Nc1ccc(N2CCc3nc(-c4ccc(N5CCCC5)nc4)sc3C2=O)cc1F | 64.6ª %
Cn1cc(N2CCc3nc(-c4ccc(N5CC[C@@H](F)C5)cc4)sc3C2=O)cn1 | 54.3ª %
Nc1cc(N2CCc3nc(-c4ccc(N5CCCC5)cn4)sc3C2=O)ccc1F | 72.8ª %
N#Cc1cc(N2CCc3nc(-c4ccc(N5CC[C@@H](F)C5)nc4)sc3C2=O)ccc1N | 66.7ª %

Look at each compound and report its Human brain derived TDP-43 aggregates Mean % competition at 250 nM.
1. Cn1cc(N2CCc3nc(-c4cnc(N5CCC[C@H](F)C5)nc4)sc3C2=O)cn1
2. Nc1cc(N2CCc3nc(-c4ccc(N5CC[C@H](F)C5)nc4)sc3C2=O)ccc1F

-- reply
47.0ª %
40.8ª %

State the recorded Human brain derived TDP-43 aggregates Mean % competition at 250 nM for every item in the following list.
1. N#Cc1cc(N2CCc3nc(-c4ccc(N5CCC[C@@H](F)C5)nc4)sc3C2=O)ccc1N
2. N#Cc1c(N)cccc1N1CCc2nc(-c3ccc(N4CC[C@H](F)C4)nc3)sc2C1=O
3. Nc1cc(N2CCc3nc(-c4cnc(N5CCC[C@H](F)C5)cn4)sc3C2=O)ccc1F
4. N#Cc1cc(N2CCc3nc(-c4ccc(N5CCC[C@H](F)C5)nc4)sc3C2=O)ccc1N

-- reply
1: 42.6ª %; 2: 22.7ª %; 3: 51.0ª %; 4: 44.0ª %

Each compound below has a recorded value; state its Human brain derived TDP-43 aggregates Mean % competition at 250 nM.
1. Cn1cc(N2CCc3nc(-c4ccc(N5CC[C@H](F)C5)cc4)sc3C2=O)cn1
2. Nc1cccc(N2CCc3nc(-c4ccc(N5CCCC5)nc4)sc3C2=O)c1F
3. N#Cc1ccc(N2CCc3nc(-c4ccc(N5CCCC5)nc4)sc3C2=O)cc1N
4. Nc1cc(N2CCc3nc(-c4ccc(N5CC[C@@H](F)C5)nc4)sc3C2=O)ccc1F

-- reply
1: 56.5ª %; 2: 44.0ª %; 3: 82.0ª %; 4: 66.6ª %

====

# assay.target: Human brain derived TDP-43 aggregates (Homo sapiens)
# Construct: A sample of brain tissue (frontal or temporal cortex) was homogenized; from tissue; host or cells: sarkosyl-insoluble fraction of human FTD brain (frontal or temporal cortex)
# method: Micro-radiobinding competition assay on human FTD sarkosyl-insoluble brain extracts
# Format: binding
# condition.set: radioligand [3H]-Compound 52 (75 nM); 0.24 nM to 2 μM test compound
# Method: Human brain extracts were prepared as described in Laferriere et al., 2019, Nature Neurosc. […] Brain homogenates were thawed on ice and resuspended in HS buffer to obtain a final concentration of 2% sarkosyl, 1 unit/μL Benzonase and 1 mM MgCl2. […] The samples were analyzed by immunoblotting in denaturing conditions. Human FTD sarkosyl-insoluble brain extracts were spotted onto microarray slides. […] Quantification of the signal was performed by using the Beamage image analysis software (ai4R). […]
Can you tell me Ki for the items I'm about to list?
Answers are plain numbers, in nM.

A selection of reference data follows.
chem.smiles | assay.target | Ki, nM
Cn1cc(N2CCc3nc(-c4ccc(N5CC[C@@H](F)C5)nc4)sc3C2=O)cn1 | Human brain derived TDP-43 aggregates (Homo sapiens) | 18.7
Cn1cc(N2CCc3nc(-c4ccc(N5CCC[C@@H](F)C5)nc4)sc3C2=O)cn1 | Human brain derived TDP-43 aggregates (Homo sapiens) | 71.7
Nc1cc(N2CCc3nc(-c4cnc(N5CC[C@@H](F)C5)nc4)sc3C2=O)ccc1F | Human brain derived TDP-43 aggregates (Homo sapiens) | 93
N#Cc1ccc(N2CCc3nc(-c4ccc(N5CCC[C@H](F)C5)nc4)sc3C2=O)cc1N | Human brain derived TDP-43 aggregates (Homo sapiens) | 101
Nc1cc(N2CCc3nc(-c4ccc(N5CCC[C@H](F)C5)nc4)sc3C2=O)ccc1F | Human brain derived TDP-43 aggregates (Homo sapiens) | 144

Kindly give each listed record's Ki.
1. N#Cc1c(N)cccc1N1CCc2nc(-c3ccc(N4CCCC4)nc3)sc2C1=O
2. N#Cc1cc(N2CCc3nc(-c4ccc(N5CC[C@H](F)C5)nc4)sc3C2=O)ccc1N
3. Cn1cc(N2CCc3nc(-c4ccc(N5CC[C@H](F)C5)cc4)sc3C2=O)cn1

-- reply
81
100
111

Values were extracted from patent US20240336627A1.
